# System: IL-1b
# assay-explanation: Mouse BMDM IL-1b Assay
# Format: cell-based
# test-conditions: Macrophage; mouse bone marrow derived macrophages (C57BL6); 200 ng/mL LPS 3 h, compound 30 min, 5 mM ATP 45 min; IL-1b ELISA of supernatant
# Experimental: Example 20: Mouse BMDM IL-1b Assay Mouse bone marrow cells from C57BL6 tibia and femur were culture in complete Isocov's Media supplemented with 20 ng/mL MCSF (BMDM media) at a density of 50 million cells/15 cm Petri dish. Fresh media was changed every 3 days, and bone marrow derived macrophages were collected, washed, and counted on day 7. Cells were seeded into 96 well plates at a density of 5×10^4 cells per well in 100 uL of BMDM media and cultured overnight. […]
pIC50: −log10 of the molar value.
observation-type: pIC50

The examples below pair each entry with its known result.
CC1(O)CCCCc2oc(S(=O)(=O)NC(=O)Nc3c4c(c(Cl)c5c3CCC5)CCC4)cc21 (stereo not shown)
> 7.00
CC(C)c1cccc(C(C)C)c1NC(=O)NS(=O)(=O)c1cc2c(o1)CCCC2(C)O (stereo not shown)
6.00 to 7.00
O=C(Nc1c2c(cc3c1CCC3)CCC2)NS(=O)(=O)c1cc2c(o1)CCCC2O (stereo not shown)
> 7.00

## Input API: value(readout= pIC50, system= IL-1b, query= CC(C)c1cc(F)cc(C(C)C)c1NC(=O)NS(=O)(=O)c1cc2c(o1)CCCC2O (stereo not shown) )
## Output 6.00 to 7.00

## Input Ok, now CC(C)c1c(F)c(Cl)c(F)c(C(C)C)c1NC(=O)NS(=O)(=O)c1cc2c(o1)CCCC2O (stereo not shown)
## Output 6.00 to 7.00

## Input Likewise for CC(C)N1CCCc2oc(S(=O)(=O)NC(=O)Nc3c4c(cc5c3CCC5)CCC4)cc2C1=O ?
## Output 5.00 to 6.00

## Input And for CCOC(=O)CC1(C)CCCc2oc(S(=O)(=O)NC(=O)Nc3c4c(cc5c3CCC5)CCC4)c(C)c21 (stereo not shown) ?
## Output 6.00 to 7.00

## Input Please do the same for O=C(Nc1c2c(cc3c1CCC3)CCC2)NS(=O)(=O)c1cc2c(o1)CCCNC2=O as well.
## Output 6.00 to 7.00

## Input Follow-up entry: CC1(O)CCCc2oc(S(=O)(=O)NC(=O)Cc3c4c(cc5c3CCC5)CCC4)cc21 (stereo not shown)
## Output 6.00 to 7.00

## Input Another: CC(C)c1c(F)c(Cl)c(F)c(C(C)C)c1NC(=O)NS(=O)(=O)c1cc2c(o1)CCC/C2=N\O
## Output 6.00 to 7.00

## Input Input CC(=O)NC1CCCc2oc(S(=O)(=O)NC(=O)Nc3c4c(c(Br)c5c3CCC5)CCC4)cc21 (stereo not shown)
## Output 6.00 to 7.00

## Input Can you handle CC(C)c1c(F)c(Cl)c(F)c(C(C)C)c1NC(=O)NS(=O)(=O)c1cc2c(o1)CCC/C2=N/O next?
## Output 5.00 to 6.00

## Input Then this compound: CN1CCCc2oc(S(=O)(=O)NC(=O)Nc3c4c(cc5c3CCC5)CCC4)cc2C1=O
## Output 6.00 to 7.00

## Input Same question for CC(C)c1cccc(C(C)C)c1NC(=O)NS(=O)(=O)c1cc2c(o1)CCC/C2=N\O please.
## Output 5.00 to 6.00

## Input Repeat with CC(C)c1ccc(F)c(C(C)C)c1NC(=O)NS(=O)(=O)c1cc2c(o1)CCCCC2O (stereo not shown)
## Output 6.00 to 7.00

## Input Also check CC(C)c1ccc(F)c(C(C)C)c1NC(=O)NS(=O)(=O)c1cc2c(o1)CCC/C2=N\O
## Output 6.00 to 7.00
